- Organism: Bos taurus
- protocol.notes: Inhibition of beef-brain Na(+)/K(+) ATPase assessed as oxidation of NADH using ATP substrate preincubated for 5 mins
Provide the reported ID50 of each item.
Give bare numbers, in µmol.

// solved cases for ID50 follow
>>> recorded_value("C[C@]12CC[C@]3(CO3)C[C@H]1CC[C@@H]1[C@@H]2CC[C@]2(C)[C@@H](C3=CC(=O)OC3)CC[C@]12O")
0.74
>>> recorded_value("C[C@]12CC[C@](O)(C(O)CO)C[C@H]1CC[C@@H]1[C@@H]2CC[C@]2(C)[C@@H](C3=CC(=O)OC3)CC[C@]12O (some centres undefined)")
1.7
>>> recorded_value("C[C@]12CC[C@@](O)(c3ccccc3)C[C@H]1CC[C@@H]1[C@@H]2CC[C@]2(C)[C@@H](C3=CC(=O)OC3)CC[C@]12O")
2.11
>>> recorded_value("C=CC[C@@]1(O)CC[C@@]2(C)[C@H](CC[C@@H]3[C@@H]2CC[C@]2(C)[C@@H](C4=CC(=O)OC4)CC[C@]32O)C1")
5.81
>>> recorded_value("CC[C@]1(O)CC[C@@]2(C)[C@H](CC[C@@H]3[C@@H]2CC[C@]2(C)[C@@H](C4=CC(=O)OC4)CC[C@]32O)C1")
2.15

Can you give me ID50 for all of these, one by one?
1. C[C@]12CC[C@@]3(CO3)C[C@H]1CC[C@@H]1[C@@H]2CC[C@]2(C)[C@@H](C3=CC(=O)OC3)CC[C@]12O
2. C#C[C@@]1(O)CC[C@@]2(C)[C@H](CC[C@@H]3[C@@H]2CC[C@]2(C)[C@@H](C4=CC(=O)OC4)CC[C@]32O)C1
3. C=CC[C@]1(O)CC[C@@]2(C)[C@H](CC[C@@H]3[C@@H]2CC[C@]2(C)[C@@H](C4=CC(=O)OC4)CC[C@]32O)C1
4. C[C@]1(O)CC[C@@]2(C)[C@H](CC[C@@H]3[C@@H]2CC[C@]2(C)[C@@H](C4=CC(=O)OC4)CC[C@]32O)C1
5. C[C@]12CC[C@](O)(CC(O)CO)C[C@H]1CC[C@@H]1[C@@H]2CC[C@]2(C)[C@@H](C3=CC(=O)OC3)CC[C@]12O (some centres undefined)
6. C[C@]12CC[C@](O)(c3ccccc3)C[C@H]1CC[C@@H]1[C@@H]2CC[C@]2(C)[C@@H](C3=CC(=O)OC3)CC[C@]12O
7. C=C[C@@]1(O)CC[C@@]2(C)[C@H](CC[C@@H]3[C@@H]2CC[C@]2(C)[C@@H](C4=CC(=O)OC4)CC[C@]32O)C1
8. C[C@]12CC[C@@](O)(C3CO3)C[C@H]1CC[C@@H]1[C@@H]2CC[C@]2(C)[C@@H](C3=CC(=O)OC3)CC[C@]12O (some centres undefined)

Response given:
[0.71, 2.11, 1.25, 0.92, 2.34, 5.81, 6.68, 2.03]

Challenge: For the molecule shown here, C[C@]12CC[C@](O)(CC3CO3)C[C@H]1CC[C@@H]1[C@@H]2CC[C@]2(C)[C@@H](C3=CC(=O)OC3)CC[C@]12O (some centres undefined) , give the reported ID50.
Response given: 4.06
